tested.on: Ribosomal protein S6 kinase alpha-1 (Homo sapiens)
experimental.protocol: Percentage RSK1 activity remaining in the presence of 0.1uM inhibitor
condition.parameters: filed as antagonist
endpoint: Activity

molecule: CC(C)CCN1c2nc(Nc3cc(F)c(O)c(F)c3)ncc2N(C)C(=O)C1C (stereo not given)
tested.on: Ribosomal protein S6 kinase alpha-1 (Homo sapiens)
result: 1%

// lookup Activity for Cc1n[nH]c2ccc(-c3cncc(OC[C@@H](N)Cc4c[nH]c5ccccc45)c3)cc12 32%

# repeat for CN(C)C[C@@H]1CCn2cc(c3ccccc32)C2=C(C(=O)NC2=O)c2cn(c3ccccc23)CCO1 10%

# repeat for Cn1c2ccccc2c2c3c(c4c5ccccc5n(CCC#N)c4c21)CNC3=O 6%

# repeat for Cn1cc(C2=C(c3cn(CCCSC(=N)N)c4ccccc34)C(=O)NC2=O)c2ccccc21 11%

====

tested.on: Serine/threonine-protein kinase Sgk1 (Homo sapiens)
experimental.protocol: Percentage SGK1 activity remaining in the presence of 0.1uM inhibitor
endpoint: Activity

Worked cases, Activity given:
compound: Cc1n[nH]c2ccc(-c3cncc(OC[C@@H](N)Cc4c[nH]c5ccccc45)c3)cc12
Activity: 53%
//
compound: CC(C)CCN1c2nc(Nc3cc(F)c(O)c(F)c3)ncc2N(C)C(=O)C1C (centres undefined)
Activity: 112%
//
compound: CN(C)C[C@@H]1CCn2cc(c3ccccc32)C2=C(C(=O)NC2=O)c2cn(c3ccccc23)CCO1
Activity: 66%

Let us move to another entry and its Activity.
// lookup Activity for CC(C)[C@H](CO)Nc1nc(Nc2cccc(Cl)c2)c2ncn(C(C)C)c2n1 82%

====

tested.on: Mitogen-activated protein kinase 15 (Homo sapiens)
experimental.protocol: Percentage ERK8 activity remaining in the presence of 0.1uM inhibitor
endpoint: Activity (%)
Form entry: value (%) — number only.

compound: CC(C)CCN1c2nc(Nc3cc(F)c(O)c(F)c3)ncc2N(C)C(=O)C1C (centres undefined)
Activity / %: 82
--
compound: CN(C)C[C@@H]1CCn2cc(c3ccccc32)C2=C(C(=O)NC2=O)c2cn(c3ccccc23)CCO1
Activity / %: 92
--
compound: CC(C)[C@H](CO)Nc1nc(Nc2cccc(Cl)c2)c2ncn(C(C)C)c2n1 [PURVALANOLA]
Activity / %: 70

// lookup Activity for Cn1cc(C2=C(c3cn(CCCSC(=N)N)c4ccccc34)C(=O)NC2=O)c2ccccc21 51

====

tested.on: Serine/threonine-protein kinase PAK 4 (Homo sapiens, UniProt O96013)
Sequence (O96013 whole entry, looked up): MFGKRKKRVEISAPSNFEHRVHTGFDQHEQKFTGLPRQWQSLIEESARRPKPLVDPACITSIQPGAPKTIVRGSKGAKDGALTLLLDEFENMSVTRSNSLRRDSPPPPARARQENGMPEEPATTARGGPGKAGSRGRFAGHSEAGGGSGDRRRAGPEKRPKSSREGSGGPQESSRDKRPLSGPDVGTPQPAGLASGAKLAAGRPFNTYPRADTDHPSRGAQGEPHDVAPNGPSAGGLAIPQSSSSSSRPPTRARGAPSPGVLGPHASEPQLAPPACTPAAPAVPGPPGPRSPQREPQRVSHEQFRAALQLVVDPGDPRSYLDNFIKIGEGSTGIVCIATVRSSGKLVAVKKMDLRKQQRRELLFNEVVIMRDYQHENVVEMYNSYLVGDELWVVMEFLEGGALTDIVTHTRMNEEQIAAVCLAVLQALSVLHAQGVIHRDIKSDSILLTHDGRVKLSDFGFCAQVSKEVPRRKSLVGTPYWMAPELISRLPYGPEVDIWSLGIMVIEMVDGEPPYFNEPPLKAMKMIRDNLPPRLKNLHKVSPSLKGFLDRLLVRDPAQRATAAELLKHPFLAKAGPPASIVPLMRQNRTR
experimental.protocol: Percentage PAK4 activity remaining in the presence of 0.1uM inhibitor
endpoint: Activity (%)
Form entry: value (%) — number only.

// lookup Activity for Cn1cc(C2=C(c3cn(CCCSC(=N)N)c4ccccc34)C(=O)NC2=O)c2ccccc21 75

# repeat for CC(C)CCN1c2nc(Nc3cc(F)c(O)c(F)c3)ncc2N(C)C(=O)C1C (stereo not given) 81

====

tested.on: Mitogen-activated protein kinase 1 (Homo sapiens) (UniProt P28482)
Sequence (P28482 whole entry): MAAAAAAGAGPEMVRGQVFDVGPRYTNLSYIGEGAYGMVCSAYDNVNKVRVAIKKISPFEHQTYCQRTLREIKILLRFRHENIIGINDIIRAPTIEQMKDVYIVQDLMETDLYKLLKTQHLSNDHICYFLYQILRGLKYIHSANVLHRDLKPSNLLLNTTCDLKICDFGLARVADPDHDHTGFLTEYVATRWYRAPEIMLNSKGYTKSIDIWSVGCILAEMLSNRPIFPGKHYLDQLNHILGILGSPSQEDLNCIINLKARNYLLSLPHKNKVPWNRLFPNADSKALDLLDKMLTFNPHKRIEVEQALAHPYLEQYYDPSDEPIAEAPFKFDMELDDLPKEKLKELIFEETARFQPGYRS
experimental.protocol: Percentage ERK2 activity remaining in the presence of 0.1uM inhibitor
Criterion: Activity meeting or surpassing 80%. Met: YES. Not met: NO.

Before answering, review these 4 worked examples.
molecule: Cc1n[nH]c2ccc(-c3cncc(OC[C@@H](N)Cc4c[nH]c5ccccc45)c3)cc12
tested.on: Mitogen-activated protein kinase 1 (Homo sapiens) (UniProt P28482)
class.name: NO
--
molecule: CN(C)C[C@@H]1CCn2cc(c3ccccc32)C2=C(C(=O)NC2=O)c2cn(c3ccccc23)CCO1
tested.on: Mitogen-activated protein kinase 1 (Homo sapiens) (UniProt P28482)
class.name: YES
--
molecule: Cn1cc(C2=C(c3cn(CCCSC(=N)N)c4ccccc34)C(=O)NC2=O)c2ccccc21
tested.on: Mitogen-activated protein kinase 1 (Homo sapiens) (UniProt P28482)
class.name: YES
--
molecule: CC(C)CCN1c2nc(Nc3cc(F)c(O)c(F)c3)ncc2N(C)C(=O)C1C (stereo unspecified)
tested.on: Mitogen-activated protein kinase 1 (Homo sapiens) (UniProt P28482)
class.name: YES

Threshold query (Activity >= 80%) on O=C(NCCCNc1nc(Nc2cccc(NC(=O)N3CCCC3)c2)ncc1I)c1cccs1 NO

====

tested.on: Mitogen-activated protein kinase 11 (Homo sapiens) (UniProt Q15759)
Sequence (Q15759 whole entry): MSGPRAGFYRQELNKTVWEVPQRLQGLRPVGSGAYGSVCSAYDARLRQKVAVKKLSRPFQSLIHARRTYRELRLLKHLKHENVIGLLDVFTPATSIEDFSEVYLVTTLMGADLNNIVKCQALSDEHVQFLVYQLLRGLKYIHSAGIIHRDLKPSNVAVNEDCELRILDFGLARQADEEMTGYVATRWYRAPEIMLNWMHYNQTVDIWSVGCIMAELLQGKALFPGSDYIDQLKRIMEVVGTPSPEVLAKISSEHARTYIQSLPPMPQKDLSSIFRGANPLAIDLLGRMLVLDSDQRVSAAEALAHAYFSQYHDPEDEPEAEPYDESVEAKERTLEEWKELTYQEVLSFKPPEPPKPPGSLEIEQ
experimental.protocol: Percentage p38beta activity remaining in the presence of 0.1uM inhibitor
# reported Activity; entries follow
# answer = value followed by unit

Worked cases, Activity given:
compound: Cn1c2ccccc2c2c3c(c4c5ccccc5n(CCC#N)c4c21)CNC3=O
Activity: 100%
--
compound: CC(C)[C@H](CO)Nc1nc(Nc2cccc(Cl)c2)c2ncn(C(C)C)c2n1 [PURVALANOLA]
Activity: 90%
--
compound: Cc1n[nH]c2ccc(-c3cncc(OC[C@@H](N)Cc4c[nH]c5ccccc45)c3)cc12
Activity: 105%
--
compound: CC(C)CCN1c2nc(Nc3cc(F)c(O)c(F)c3)ncc2N(C)C(=O)C1C (configuration not stated)
Activity: 100%
--
compound: CN(C)C[C@@H]1CCn2cc(c3ccccc32)C2=C(C(=O)NC2=O)c2cn(c3ccccc23)CCO1
Activity: 109%

// lookup Activity for O=C(NCCCNc1nc(Nc2cccc(NC(=O)N3CCCC3)c2)ncc1I)c1cccs1 71%

# repeat for Cn1cc(C2=C(c3cn(CCCSC(=N)N)c4ccccc34)C(=O)NC2=O)c2ccccc21 99%

====

tested.on: Receptor-interacting serine/threonine-protein kinase 2 (Homo sapiens)
Sequence (O43353 whole entry): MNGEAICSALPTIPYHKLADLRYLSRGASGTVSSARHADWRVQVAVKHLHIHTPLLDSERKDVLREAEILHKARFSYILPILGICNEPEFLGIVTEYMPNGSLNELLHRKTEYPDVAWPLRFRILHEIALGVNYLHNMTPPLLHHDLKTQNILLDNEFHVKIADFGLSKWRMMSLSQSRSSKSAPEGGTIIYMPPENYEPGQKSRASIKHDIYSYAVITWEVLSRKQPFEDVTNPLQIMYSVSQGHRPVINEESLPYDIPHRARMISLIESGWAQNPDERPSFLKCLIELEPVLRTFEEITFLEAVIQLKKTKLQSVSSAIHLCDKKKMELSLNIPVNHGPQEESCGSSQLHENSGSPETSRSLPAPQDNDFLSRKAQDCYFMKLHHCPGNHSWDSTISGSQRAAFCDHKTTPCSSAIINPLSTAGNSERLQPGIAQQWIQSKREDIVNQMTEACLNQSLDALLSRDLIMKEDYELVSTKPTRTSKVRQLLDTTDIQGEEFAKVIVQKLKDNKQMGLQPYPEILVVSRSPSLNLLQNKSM
experimental.protocol: Inhibition of RIP2 in the presence of 100uM ATP
# reported IC50; entries follow

Worked cases, IC50 given:
compound.smiles: CC(C)(C)n1nc(Cc2cccc3ccccc23)c2c(N)ncnc21
tested.on: Receptor-interacting serine/threonine-protein kinase 2 (Homo sapiens)
IC50: 130 nM (antagonist)

compound.smiles: CC(C)(C)n1nc(-c2cccc3ccccc23)c2c(N)ncnc21
tested.on: Receptor-interacting serine/threonine-protein kinase 2 (Homo sapiens)
IC50: 120 nM (antagonist)

compound.smiles: Cc1ccc(NC(=O)c2cccc(N(C)C)c2)cc1NC(=O)c1ccc(O)cc1
tested.on: Receptor-interacting serine/threonine-protein kinase 2 (Homo sapiens)
IC50: > 100000 nM (antagonist)

compound.smiles: COc1cc2ncnc(Nc3ccc(Oc4ccccc4)cc3)c2cc1OC
tested.on: Receptor-interacting serine/threonine-protein kinase 2 (Homo sapiens)
IC50: 26 nM (antagonist)

compound.smiles: CC(C)(C)n1nc(-c2ccc(Cl)cc2)c2c(N)ncnc21
tested.on: Receptor-interacting serine/threonine-protein kinase 2 (Homo sapiens)
IC50: 19 nM (antagonist)

Notebook entry, Receptor-interacting serine/threonine-protein kinase 2 (Homo sapiens) assay: IC50 of Cc1ccc(-c2nn(C(C)(C)C)c3ncnc(N)c23)cc1 = ? 26 nM (antagonist)

====

tested.on: Aurora kinase B (Homo sapiens)
Sequence (Q96GD4 whole entry): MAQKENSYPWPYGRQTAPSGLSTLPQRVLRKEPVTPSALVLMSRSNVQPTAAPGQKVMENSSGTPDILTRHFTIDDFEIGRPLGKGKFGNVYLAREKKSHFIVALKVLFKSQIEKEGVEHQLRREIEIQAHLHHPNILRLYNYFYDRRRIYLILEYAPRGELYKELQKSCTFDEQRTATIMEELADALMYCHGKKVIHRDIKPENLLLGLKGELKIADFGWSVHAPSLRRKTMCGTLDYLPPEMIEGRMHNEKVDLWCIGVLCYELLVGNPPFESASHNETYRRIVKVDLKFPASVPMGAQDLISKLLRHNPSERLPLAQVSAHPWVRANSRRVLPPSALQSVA
experimental.protocol: Percentage Aurora B activity remaining in the presence of 0.1uM inhibitor
endpoint: Activity (%)
Form entry: value (%) — number only.

compound.smiles: CN(C)C[C@@H]1CCn2cc(c3ccccc32)C2=C(C(=O)NC2=O)c2cn(c3ccccc23)CCO1
tested.on: Aurora kinase B (Homo sapiens)
endpoint: Activity
readout.number: 65

// lookup Activity for Cc1n[nH]c2ccc(-c3cncc(OC[C@@H](N)Cc4c[nH]c5ccccc45)c3)cc12 80

# repeat for CC(C)[C@H](CO)Nc1nc(Nc2cccc(Cl)c2)c2ncn(C(C)C)c2n1 89

# repeat for Cn1cc(C2=C(c3cn(CCCSC(=N)N)c4ccccc34)C(=O)NC2=O)c2ccccc21 80

====

tested.on: Inhibitor of nuclear factor kappa-B kinase subunit beta (Homo sapiens)
experimental.protocol: Percentage IKK-beta activity remaining in the presence of 0.1uM inhibitor
Field 'label' (enum: Criterion met / Criterion not met). Set to Criterion met when Activity is strictly under 90%; else Criterion not met.

Consider Cn1c2ccccc2c2c3c(c4c5ccccc5n(CCC#N)c4c21)CNC3=O . Does its Activity lie strictly below 90%? Criterion met

# repeat for CN(C)C[C@@H]1CCn2cc(c3ccccc32)C2=C(C(=O)NC2=O)c2cn(c3ccccc23)CCO1 Criterion met

# repeat for CC(C)CCN1c2nc(Nc3cc(F)c(O)c(F)c3)ncc2N(C)C(=O)C1C (configuration not stated) Criterion not met

# repeat for O=C(NCCCNc1nc(Nc2cccc(NC(=O)N3CCCC3)c2)ncc1I)c1cccs1 Criterion not met

====

tested.on: Serine/threonine-protein kinase PAK 5 (Homo sapiens)
experimental.protocol: Percentage PAK5 activity remaining in the presence of 0.1uM inhibitor
endpoint: Activity (%)
Form entry: value (%) — number only.

// lookup Activity for Cn1cc(C2=C(c3cn(CCCSC(=N)N)c4ccccc34)C(=O)NC2=O)c2ccccc21 79

# repeat for CN(C)C[C@@H]1CCn2cc(c3ccccc32)C2=C(C(=O)NC2=O)c2cn(c3ccccc23)CCO1 79

# repeat for O=C(NCCCNc1nc(Nc2cccc(NC(=O)N3CCCC3)c2)ncc1I)c1cccs1 81

====

tested.on: Serine/threonine-protein kinase PAK 4 (Homo sapiens, UniProt O96013)
experimental.protocol: Percentage PAK4 activity remaining in the presence of 0.1uM inhibitor
# reported Activity; entries follow
Form entry: value (%) — number only.

compound.smiles: Cc1n[nH]c2ccc(-c3cncc(OC[C@@H](N)Cc4c[nH]c5ccccc45)c3)cc12
Activity, %: 90
--
compound.smiles: CN(C)C[C@@H]1CCn2cc(c3ccccc32)C2=C(C(=O)NC2=O)c2cn(c3ccccc23)CCO1
Activity, %: 75

Let us move to another entry and its Activity.
// lookup Activity for O=C(NCCCNc1nc(Nc2cccc(NC(=O)N3CCCC3)c2)ncc1I)c1cccs1 71

Where do these numbers come from? They come from ChEMBL document CHEMBL1150976.
